assay_remarks: MTT detection of cell viability
Assay type: cell-based, human
test_context: human, SH-SY5Y cells, 200 μmol ·L^−1, 48 h
Structures can show the parent of a compound that is named as a salt.
endpoint_label: viability at 48 h, 200 μmol·L^−1

Quick check: viability at 48 h, 200 μmol·L^−1 of CN[C@@H](C)Cc1ccccc1 [MA, Methamphetamine hydrochloride] ?
< 90%
